- Test: Human liver microsomal stability of compound in microsomal protein, PBS buffer pH 7.4, NADPH, glucose-6-phosphate and glucose-6-phosphate dehydrogenase media. Aliquotes were taken at 5 time points and after stopping the reaction, supernatants were analyzed using HPLC coupled with a tandem mass spectrometer. The elimination constant, half-life, and intrinsic clearance are determined as results using linear regression analysis. The assay has been performed by Enamine biological services, Bienta Ltd.The protocol is publicly available: dx.doi.org/10.17504/protocols.io.5qpvokdb9l4o/v1
- Format: ADME, microsomes, Microsome
- Conditions used: microsomes
Assay endpoint: T1/2 (min)

a = CNC(=O)c1c[nH]c2ncnc(N[C@@H](c3ccc4c(c3)S(=O)(=O)CCC4)C(C)C)c12
b = CC(C)[C@@H](Nc1ncnc2[nH]ccc12)c1ccc2c(c1)NC(=O)CO2
IN: Recorded T1/2 values differ for a and b ; which one is higher? Lab log: write the label of the selected item as the result.
OUT: b
(b: 54.3 min, a: 15.4 min)

I = CC(C)(C)[C@@H](Nc1ncnc2[nH]c(-c3cnn(CC(N)=O)c3)cc12)c1ccc2c(c1)OCCO2
II = CC(C)[C@@H](Nc1ncnc2[nH]c(-c3cnn(C)c3C#N)cc12)c1ccc2c(c1)OCCO2
IN: Which has the higher T1/2, I or II ? Write down the label of the entry you select.
OUT: II
